These entries and their values trace back to patent US20260240847A1.

- target of assay: EGFR L858R/C797S (Homo sapiens, UniProt P00533, C797S/L858R)
- Sequence (P00533 25-1210 C797S/L858R): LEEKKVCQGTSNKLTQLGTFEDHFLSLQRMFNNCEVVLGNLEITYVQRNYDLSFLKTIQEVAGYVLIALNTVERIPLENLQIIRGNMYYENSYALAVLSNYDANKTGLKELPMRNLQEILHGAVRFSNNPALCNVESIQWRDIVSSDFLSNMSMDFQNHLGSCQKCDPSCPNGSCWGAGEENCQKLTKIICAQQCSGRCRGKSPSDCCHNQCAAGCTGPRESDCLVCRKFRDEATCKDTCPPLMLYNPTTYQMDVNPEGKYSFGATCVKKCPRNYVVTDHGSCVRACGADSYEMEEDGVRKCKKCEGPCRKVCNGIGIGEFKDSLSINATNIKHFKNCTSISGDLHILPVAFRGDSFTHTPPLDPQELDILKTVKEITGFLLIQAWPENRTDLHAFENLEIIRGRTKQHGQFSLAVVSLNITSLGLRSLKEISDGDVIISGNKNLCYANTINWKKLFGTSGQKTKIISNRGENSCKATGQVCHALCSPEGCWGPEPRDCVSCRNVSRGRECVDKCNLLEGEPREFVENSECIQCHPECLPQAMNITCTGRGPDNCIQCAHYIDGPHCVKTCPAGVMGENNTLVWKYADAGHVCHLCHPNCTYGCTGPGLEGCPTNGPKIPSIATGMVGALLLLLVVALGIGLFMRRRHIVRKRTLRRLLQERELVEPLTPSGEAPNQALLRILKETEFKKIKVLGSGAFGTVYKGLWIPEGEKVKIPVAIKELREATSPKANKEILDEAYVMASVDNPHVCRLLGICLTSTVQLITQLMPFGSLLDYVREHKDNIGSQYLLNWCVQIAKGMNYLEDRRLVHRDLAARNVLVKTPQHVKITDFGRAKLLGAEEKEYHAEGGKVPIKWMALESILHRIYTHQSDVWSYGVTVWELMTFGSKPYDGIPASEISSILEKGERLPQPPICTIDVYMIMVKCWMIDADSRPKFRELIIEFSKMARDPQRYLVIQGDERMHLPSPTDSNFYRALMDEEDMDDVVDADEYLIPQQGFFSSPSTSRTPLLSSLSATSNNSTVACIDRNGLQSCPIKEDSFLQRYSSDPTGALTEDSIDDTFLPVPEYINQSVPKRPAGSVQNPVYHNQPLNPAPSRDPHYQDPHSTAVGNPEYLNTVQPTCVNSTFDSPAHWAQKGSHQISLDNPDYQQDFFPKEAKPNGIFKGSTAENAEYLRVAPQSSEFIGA
- protocol description: Ba/F3 cell viability, Cell Titer Glo
- test settings: read-out: IC50 Values; Ba/F3 cells expressing EGFR L858R/C797S, 72 hours
readout type: IC50 (µM)

[[record]]
compound = "C=CC(=O)N1CC[C@@H](Oc2nc(Nc3ccc(N4CCC(N5CCN(C)CC5)CC4)cc3)c(C(N)=O)nc2CC)C1 [Naquotinib]"
target_of_assay = "EGFR L858R/C797S (Homo sapiens, UniProt P00533, C797S/L858R)"
measured_result = 0.709


====

- target of assay: EGFR G719A (Homo sapiens, UniProt P00533, G719A)
- Sequence (P00533 25-1210 G719A): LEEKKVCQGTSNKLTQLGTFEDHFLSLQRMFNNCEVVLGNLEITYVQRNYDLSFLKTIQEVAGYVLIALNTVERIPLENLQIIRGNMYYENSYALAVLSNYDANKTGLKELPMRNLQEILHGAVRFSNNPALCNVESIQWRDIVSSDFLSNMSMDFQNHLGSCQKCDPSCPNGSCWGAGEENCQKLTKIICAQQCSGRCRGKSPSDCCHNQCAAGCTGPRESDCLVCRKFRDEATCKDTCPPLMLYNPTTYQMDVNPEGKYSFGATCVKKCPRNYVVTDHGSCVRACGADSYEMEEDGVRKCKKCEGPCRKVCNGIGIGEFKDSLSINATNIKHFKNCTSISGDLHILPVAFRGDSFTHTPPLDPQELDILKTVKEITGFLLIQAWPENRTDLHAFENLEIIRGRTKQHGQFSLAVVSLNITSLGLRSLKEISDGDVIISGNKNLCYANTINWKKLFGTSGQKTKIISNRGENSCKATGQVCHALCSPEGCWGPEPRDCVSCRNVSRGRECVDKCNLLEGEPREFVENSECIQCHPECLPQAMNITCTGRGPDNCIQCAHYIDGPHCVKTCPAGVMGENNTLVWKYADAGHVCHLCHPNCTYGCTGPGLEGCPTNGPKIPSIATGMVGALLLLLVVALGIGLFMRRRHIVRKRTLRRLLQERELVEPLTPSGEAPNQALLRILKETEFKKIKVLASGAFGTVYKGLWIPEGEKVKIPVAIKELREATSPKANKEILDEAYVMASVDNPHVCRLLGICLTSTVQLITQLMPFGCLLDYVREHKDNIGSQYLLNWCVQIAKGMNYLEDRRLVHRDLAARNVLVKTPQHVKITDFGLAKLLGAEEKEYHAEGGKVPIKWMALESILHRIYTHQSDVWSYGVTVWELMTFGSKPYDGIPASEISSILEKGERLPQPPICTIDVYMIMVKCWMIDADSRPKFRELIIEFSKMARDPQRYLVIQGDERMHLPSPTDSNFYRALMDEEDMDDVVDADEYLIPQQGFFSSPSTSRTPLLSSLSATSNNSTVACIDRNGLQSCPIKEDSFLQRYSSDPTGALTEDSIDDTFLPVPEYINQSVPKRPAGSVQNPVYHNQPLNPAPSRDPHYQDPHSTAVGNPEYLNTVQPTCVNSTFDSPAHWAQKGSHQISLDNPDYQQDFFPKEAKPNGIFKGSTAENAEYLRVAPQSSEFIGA
- protocol description: Ba/F3 cell viability, Cell Titer Glo
- test settings: read-out: IC50 Values; Ba/F3 cells expressing EGFR G719A, 72 hours
pIC50: −log10 of the molar value.
readout type: pIC50

[[record]]
compound_smiles = "C=CC(=O)N1CC[C@@H](Oc2nc(Nc3ccc(N4CCC(N5CCN(C)CC5)CC4)cc3)c(C(N)=O)nc2CC)C1"
readout_type = "pIC50"
measured_result = 7.74


====

- target of assay: EGFR R776C (Homo sapiens, UniProt P00533, R776C)
- protocol description: Ba/F3 cell viability, Cell Titer Glo
- test settings: read-out: IC50 Values; Ba/F3 cells expressing EGFR R776C, 72 hours
readout type: IC50 (nM)

[[record]]
compound_smiles = "C=CC(=O)N1CC[C@@H](Oc2nc(Nc3ccc(N4CCC(N5CCN(C)CC5)CC4)cc3)c(C(N)=O)nc2CC)C1"
measured_result = 575


====

- target of assay: EGFR L858R T790M/C797S (Homo sapiens, UniProt P00533, C797S/L858R/T790M)
- Sequence (P00533 25-1210 T790M/C797S/L858R): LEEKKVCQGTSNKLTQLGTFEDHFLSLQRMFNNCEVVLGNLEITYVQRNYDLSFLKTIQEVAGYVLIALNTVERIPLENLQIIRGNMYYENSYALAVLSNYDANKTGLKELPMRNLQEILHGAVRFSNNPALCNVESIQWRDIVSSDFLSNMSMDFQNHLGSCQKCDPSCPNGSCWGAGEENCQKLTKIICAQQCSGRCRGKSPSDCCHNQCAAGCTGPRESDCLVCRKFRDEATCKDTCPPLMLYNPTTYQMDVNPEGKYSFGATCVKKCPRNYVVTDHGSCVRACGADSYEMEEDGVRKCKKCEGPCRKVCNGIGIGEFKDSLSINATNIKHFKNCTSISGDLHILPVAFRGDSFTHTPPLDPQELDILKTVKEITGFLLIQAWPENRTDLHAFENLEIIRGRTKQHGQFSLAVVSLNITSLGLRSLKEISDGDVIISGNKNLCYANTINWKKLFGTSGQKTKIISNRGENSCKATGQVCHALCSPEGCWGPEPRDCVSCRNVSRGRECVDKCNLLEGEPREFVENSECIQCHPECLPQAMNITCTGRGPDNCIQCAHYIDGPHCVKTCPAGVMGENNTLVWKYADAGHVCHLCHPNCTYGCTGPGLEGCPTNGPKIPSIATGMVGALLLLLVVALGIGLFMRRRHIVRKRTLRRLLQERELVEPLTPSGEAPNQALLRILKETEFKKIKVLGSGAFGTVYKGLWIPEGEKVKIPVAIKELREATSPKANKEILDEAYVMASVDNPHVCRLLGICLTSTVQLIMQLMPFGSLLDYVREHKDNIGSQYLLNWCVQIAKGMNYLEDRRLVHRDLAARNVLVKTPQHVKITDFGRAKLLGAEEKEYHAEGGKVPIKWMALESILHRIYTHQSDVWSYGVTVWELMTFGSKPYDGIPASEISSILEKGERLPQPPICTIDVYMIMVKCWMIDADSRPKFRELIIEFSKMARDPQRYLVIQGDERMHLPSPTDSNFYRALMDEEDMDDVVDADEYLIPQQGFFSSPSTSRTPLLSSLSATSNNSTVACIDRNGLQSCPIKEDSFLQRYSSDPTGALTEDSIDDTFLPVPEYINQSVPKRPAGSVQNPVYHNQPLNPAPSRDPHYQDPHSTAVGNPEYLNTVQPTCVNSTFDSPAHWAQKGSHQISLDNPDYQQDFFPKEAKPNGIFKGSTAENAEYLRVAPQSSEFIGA
- protocol description: Ba/F3 cell viability, Cell Titer Glo
- test settings: read-out: IC50 Values; Ba/F3 cells expressing EGFR L858R T790M/C797S, 72 hours
pIC50: −log10 of the molar value.
The entries below come with measured pIC50 values attached.
readout type: pIC50

[[record]]
compound_smiles = "C=CC(=O)N1CC[C@@H](Oc2nc(Nc3ccc(N4CCC(N5CCN(C)CC5)CC4)cc3)c(C(N)=O)nc2CC)C1"
target_of_assay = "EGFR L858R T790M/C797S (Homo sapiens, UniProt P00533, C797S/L858R/T790M)"
readout_type = "pIC50"
measured_result = 5.36

[[record]]
compound_smiles = "COc1cc(N2CCC(N)CC2)ccc1Nc1ncc(Cl)c(-c2c[nH]c3ccccc23)n1"
target_of_assay = "EGFR L858R T790M/C797S (Homo sapiens, UniProt P00533, C797S/L858R/T790M)"
readout_type = "pIC50"
measured_result = 5.90


====

- target of assay: EGFR V774M (Homo sapiens, UniProt P00533, V774M)
- Sequence (P00533 25-1210 V774M): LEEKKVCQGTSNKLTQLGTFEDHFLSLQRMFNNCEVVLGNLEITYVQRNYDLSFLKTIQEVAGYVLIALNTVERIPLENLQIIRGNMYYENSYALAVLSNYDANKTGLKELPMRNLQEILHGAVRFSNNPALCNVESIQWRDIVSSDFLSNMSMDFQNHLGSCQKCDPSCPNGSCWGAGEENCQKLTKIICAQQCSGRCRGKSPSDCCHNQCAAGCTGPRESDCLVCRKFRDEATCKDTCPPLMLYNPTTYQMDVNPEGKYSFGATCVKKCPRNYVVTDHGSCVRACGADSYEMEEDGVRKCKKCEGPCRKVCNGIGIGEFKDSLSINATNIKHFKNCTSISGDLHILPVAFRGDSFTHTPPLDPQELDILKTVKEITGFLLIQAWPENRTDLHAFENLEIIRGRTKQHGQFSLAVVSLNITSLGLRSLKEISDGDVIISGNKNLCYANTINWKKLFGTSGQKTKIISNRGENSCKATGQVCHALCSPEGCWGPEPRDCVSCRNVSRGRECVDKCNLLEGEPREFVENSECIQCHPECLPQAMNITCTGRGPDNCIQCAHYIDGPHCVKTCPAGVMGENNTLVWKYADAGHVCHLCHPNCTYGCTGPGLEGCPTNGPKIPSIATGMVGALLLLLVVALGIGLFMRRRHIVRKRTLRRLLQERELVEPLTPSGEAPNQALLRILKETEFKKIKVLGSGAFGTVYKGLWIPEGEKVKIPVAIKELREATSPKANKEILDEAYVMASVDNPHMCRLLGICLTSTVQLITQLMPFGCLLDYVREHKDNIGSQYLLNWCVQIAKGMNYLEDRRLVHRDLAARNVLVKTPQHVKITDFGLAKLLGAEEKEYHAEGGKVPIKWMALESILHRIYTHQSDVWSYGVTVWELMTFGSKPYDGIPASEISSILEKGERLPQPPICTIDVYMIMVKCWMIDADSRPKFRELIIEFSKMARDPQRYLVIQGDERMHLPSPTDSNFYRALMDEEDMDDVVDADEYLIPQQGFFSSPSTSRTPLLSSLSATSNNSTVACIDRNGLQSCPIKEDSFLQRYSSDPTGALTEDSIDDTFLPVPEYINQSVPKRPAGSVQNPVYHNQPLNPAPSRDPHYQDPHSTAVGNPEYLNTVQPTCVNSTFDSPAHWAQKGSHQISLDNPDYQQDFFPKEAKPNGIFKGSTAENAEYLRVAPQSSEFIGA
- protocol description: Ba/F3 cell viability, Cell Titer Glo
- test settings: read-out: IC50 Values; Ba/F3 cells expressing EGFR V774M, 72 hours
pIC50: −log10 of the molar value.
readout type: pIC50

[[record]]
compound_smiles = "C=CC(=O)N1CC[C@@H](Oc2nc(Nc3ccc(N4CCC(N5CCN(C)CC5)CC4)cc3)c(C(N)=O)nc2CC)C1"
readout_type = "pIC50"
measured_result = 7.41

